- assay text: Oral bioavailability in NMRI mouse at 0.5 mg/kg via gavage measured over 6 hrs measured over 6 hrs
- Format: ADME, organism-based
- study conditions: in vivo
readout: bioavailability (%)
// return numeric value only (unit: %, not printed)

Qu. Query bioavailability for "Cc1n[nH]c2ncc(C(=O)N3CCC[C@H]3c3ccc(Cl)cc3)cc12"
Ans. 25

---

- tested system: Tyrosine-protein kinase JAK1 (Homo sapiens)
- Sequence (P23458 whole entry): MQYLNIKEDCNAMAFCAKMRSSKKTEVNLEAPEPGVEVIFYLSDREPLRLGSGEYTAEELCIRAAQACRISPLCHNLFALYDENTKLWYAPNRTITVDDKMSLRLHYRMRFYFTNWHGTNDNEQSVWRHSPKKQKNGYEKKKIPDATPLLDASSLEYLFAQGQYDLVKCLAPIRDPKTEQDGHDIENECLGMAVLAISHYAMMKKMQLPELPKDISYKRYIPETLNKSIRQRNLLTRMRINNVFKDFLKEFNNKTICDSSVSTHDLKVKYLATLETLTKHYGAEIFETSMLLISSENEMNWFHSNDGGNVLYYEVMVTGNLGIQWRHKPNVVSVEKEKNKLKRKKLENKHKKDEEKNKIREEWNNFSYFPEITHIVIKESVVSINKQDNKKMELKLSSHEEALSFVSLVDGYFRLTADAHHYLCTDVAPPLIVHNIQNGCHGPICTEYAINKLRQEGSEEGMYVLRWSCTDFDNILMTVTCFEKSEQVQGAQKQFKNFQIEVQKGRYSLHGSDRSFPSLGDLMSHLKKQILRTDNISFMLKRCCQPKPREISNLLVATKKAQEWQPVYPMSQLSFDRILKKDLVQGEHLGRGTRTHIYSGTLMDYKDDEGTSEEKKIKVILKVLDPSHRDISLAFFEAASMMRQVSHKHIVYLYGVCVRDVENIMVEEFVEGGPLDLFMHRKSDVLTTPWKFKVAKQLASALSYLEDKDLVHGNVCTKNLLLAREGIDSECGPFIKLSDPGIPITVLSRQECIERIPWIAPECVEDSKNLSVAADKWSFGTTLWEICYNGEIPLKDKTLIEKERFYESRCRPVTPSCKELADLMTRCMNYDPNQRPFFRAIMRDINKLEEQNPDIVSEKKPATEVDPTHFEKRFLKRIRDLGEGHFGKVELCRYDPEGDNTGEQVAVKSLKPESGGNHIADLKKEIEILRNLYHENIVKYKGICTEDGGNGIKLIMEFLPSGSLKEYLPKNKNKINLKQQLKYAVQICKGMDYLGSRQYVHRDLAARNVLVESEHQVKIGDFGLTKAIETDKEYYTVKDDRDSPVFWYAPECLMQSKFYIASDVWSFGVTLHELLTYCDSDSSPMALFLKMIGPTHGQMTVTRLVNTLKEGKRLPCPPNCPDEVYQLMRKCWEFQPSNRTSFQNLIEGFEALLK
- assay text: Inhibition of JAK1 (unknown origin) at 1 uM relative to control
Below: a set of entries, each annotated with reported inhibition.
Put down the number, then write its unit next to it.

See these solved cases before continuing.
>>> print(df.to_string())
                                smiles_data  assay_result
0  Nc1n[nH]c2ccc(C(=O)N3CCCC[C@H]3c3ccc(F)cc3)cc12           21%
1  Nc1n[nH]c2ccc(C(=O)N3CCC[C@H]3c3ccc(Br)cc3)cc12           88%
2  CNc1n[nH]c2ccc(C(=O)N3CCC[C@H]3c3ccc(Cl)cc3)cc12           34%
3  Nc1n[nH]c2ccc(C(=O)N3CC[C@H]3c3ccc(F)cc3)cc12           63%
4  Nc1n[nH]c2ccc(C(=O)N3CCC[C@H]3c3ccc(Cl)cc3)cc12           86%
5  Nc1n[nH]c2ccc(C(=O)N3CC[C@@H](c4ccc(Cl)cc4)C3)cc12           24%

Qu. Supply recorded inhibition for "Nc1n[nH]c2ccc(C(=O)N3CCC[C@H]3c3ccc(F)cc3)cc12" here.
Ans. 72%

---

- tested system: Sodium-dependent dopamine transporter (Homo sapiens, UniProt Q01959)
- Sequence (Q01959 whole entry): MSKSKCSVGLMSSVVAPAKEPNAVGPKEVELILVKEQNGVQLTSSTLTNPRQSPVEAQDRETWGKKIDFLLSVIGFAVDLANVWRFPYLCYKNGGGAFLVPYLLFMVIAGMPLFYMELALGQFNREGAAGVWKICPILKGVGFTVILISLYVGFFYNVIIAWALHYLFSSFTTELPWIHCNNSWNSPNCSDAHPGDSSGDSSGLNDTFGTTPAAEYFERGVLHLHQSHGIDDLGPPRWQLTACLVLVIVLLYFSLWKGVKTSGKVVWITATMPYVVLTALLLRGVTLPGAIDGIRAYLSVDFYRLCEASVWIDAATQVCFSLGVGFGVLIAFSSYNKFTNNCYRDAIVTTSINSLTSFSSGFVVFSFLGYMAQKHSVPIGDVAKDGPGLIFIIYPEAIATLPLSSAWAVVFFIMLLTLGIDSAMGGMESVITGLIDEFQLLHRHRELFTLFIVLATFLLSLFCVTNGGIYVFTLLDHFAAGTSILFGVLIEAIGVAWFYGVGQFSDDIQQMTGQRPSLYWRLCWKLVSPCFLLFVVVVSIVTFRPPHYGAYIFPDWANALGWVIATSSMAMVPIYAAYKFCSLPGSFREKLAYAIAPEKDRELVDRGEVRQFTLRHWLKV
- assay text: Displacement of [3H]BTCP from human recombinant dopamine transporter expressed in CHO cells after 120 mins by scintillation counting method
readout: IC50

Qu. Identify IC50 associated with the compound "Cc1n[nH]c2ncc(C(=O)N3CCC[C@H]3c3ccc(Cl)cc3)cc12"
Ans. 8.5 µM

---

- tested system: Tyrosine-protein kinase JAK3 (Homo sapiens) (UniProt P52333)
- Sequence (whole entry): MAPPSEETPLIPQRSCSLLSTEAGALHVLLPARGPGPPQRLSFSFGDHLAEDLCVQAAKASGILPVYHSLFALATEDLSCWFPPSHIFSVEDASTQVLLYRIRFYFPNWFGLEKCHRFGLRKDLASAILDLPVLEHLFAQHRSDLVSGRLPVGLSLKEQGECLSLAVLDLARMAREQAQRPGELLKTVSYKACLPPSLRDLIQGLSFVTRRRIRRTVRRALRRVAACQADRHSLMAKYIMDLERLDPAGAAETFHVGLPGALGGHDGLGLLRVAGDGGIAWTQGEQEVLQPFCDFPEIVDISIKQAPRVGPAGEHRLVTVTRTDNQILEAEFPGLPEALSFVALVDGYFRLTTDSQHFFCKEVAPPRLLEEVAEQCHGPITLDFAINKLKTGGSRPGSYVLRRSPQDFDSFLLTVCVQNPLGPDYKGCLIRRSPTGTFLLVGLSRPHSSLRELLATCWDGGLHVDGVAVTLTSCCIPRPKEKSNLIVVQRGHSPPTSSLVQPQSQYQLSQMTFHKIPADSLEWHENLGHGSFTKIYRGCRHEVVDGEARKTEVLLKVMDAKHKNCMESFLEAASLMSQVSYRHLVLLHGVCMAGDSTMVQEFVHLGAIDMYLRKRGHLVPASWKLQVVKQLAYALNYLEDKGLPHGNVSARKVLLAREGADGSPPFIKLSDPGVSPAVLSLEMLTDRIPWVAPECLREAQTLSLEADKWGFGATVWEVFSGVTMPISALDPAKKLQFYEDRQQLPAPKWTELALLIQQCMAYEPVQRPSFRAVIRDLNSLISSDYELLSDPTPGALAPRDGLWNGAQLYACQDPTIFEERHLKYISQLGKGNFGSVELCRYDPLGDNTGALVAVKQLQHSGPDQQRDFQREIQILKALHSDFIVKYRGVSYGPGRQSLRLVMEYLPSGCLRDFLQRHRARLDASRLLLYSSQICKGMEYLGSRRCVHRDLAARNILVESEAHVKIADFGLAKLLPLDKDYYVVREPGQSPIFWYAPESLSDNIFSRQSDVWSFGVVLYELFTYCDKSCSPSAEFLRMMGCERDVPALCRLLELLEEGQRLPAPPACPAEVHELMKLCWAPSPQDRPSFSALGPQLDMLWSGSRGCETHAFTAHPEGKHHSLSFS
- assay text: Inhibition of JAK3 (unknown origin) at 1 uM relative to control
readout: inhibition
Note: a bare number is incomplete; add the unit.

In [3]: df
Out[3]:
                                smiles_data  assay_result
0  Nc1n[nH]c2ccc(C(=O)N3CC[C@@H](c4ccc(Cl)cc4)C3)cc12           15%

Qu. Given the compound "Nc1n[nH]c2ccc(C(=O)N3CCC[C@H]3c3ccc(Cl)cc3)cc12" , write its reported inhibition.
Ans. 79%

Qu. Dear colleague, please send me the reported inhibition for "Nc1n[nH]c2ccc(C(=O)N3CCC[C@H]3c3ccc(F)cc3)cc12" when you can.
Ans. 58%

Qu. Answer with reported inhibition of "Nc1n[nH]c2ccc(C(=O)N3CC[C@H]3c3ccc(F)cc3)cc12"
Ans. 21%

Qu. Give the measured inhibition for "CNc1n[nH]c2ccc(C(=O)N3CCC[C@H]3c3ccc(Cl)cc3)cc12"
Ans. 37%

Qu. Hello, please tell me recorded inhibition for this one: "Nc1n[nH]c2ccc(C(=O)N3CCC[C@H]3c3ccc(Br)cc3)cc12"
Ans. 76%

---

inhibition values by entry
- tested system: UniProt O75116
- Sequence (O75116 whole entry, looked up): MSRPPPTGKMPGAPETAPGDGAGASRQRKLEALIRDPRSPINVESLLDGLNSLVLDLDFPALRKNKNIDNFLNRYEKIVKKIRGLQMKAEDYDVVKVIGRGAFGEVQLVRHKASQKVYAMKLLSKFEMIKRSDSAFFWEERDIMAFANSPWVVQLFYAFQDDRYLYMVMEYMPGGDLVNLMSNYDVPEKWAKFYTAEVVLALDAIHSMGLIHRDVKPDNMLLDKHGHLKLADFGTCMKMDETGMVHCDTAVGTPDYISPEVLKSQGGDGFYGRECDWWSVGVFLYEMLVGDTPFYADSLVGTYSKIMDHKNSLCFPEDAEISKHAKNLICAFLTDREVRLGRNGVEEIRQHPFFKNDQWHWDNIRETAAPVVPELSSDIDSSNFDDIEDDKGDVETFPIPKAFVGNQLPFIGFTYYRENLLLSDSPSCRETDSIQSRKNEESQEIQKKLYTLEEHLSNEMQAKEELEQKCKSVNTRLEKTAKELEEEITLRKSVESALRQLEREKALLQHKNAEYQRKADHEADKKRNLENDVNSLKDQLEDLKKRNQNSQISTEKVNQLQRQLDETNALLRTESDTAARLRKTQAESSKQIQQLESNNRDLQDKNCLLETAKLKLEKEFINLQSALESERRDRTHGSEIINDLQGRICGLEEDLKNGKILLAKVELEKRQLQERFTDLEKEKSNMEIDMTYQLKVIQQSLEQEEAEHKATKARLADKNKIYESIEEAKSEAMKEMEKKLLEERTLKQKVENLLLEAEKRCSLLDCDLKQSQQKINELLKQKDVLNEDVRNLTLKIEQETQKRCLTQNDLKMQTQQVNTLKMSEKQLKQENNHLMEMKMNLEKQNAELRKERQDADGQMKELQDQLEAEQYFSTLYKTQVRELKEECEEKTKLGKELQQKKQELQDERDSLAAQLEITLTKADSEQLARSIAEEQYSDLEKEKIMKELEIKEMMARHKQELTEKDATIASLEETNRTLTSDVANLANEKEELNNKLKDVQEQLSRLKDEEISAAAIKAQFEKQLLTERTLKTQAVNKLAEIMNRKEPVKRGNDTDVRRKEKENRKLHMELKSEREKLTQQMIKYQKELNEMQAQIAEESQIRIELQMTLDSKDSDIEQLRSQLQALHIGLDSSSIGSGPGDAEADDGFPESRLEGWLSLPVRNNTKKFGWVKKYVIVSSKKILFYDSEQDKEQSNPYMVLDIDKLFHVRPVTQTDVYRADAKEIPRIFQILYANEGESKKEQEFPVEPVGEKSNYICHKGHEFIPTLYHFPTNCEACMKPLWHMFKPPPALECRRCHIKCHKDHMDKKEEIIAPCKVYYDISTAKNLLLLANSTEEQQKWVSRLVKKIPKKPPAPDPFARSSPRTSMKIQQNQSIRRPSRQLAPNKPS
- assay text: Inhibition of ROCK-2 (unknown origin) at 1 uM relative to control
Entry rule: numbers only, all in %.

Answered examples (5):
>>> print(df.to_string())
                                smiles_data   tested_system  assay_result
0  Nc1n[nH]c2ccc(C(=O)N3CCC[C@H]3c3ccc(Cl)cc3)cc12  UniProt O75116            42
1  Nc1n[nH]c2ccc(C(=O)N3CCC[C@H]3c3ccc(Br)cc3)cc12  UniProt O75116            65
2  Nc1n[nH]c2ccc(C(=O)N3CCCC[C@H]3c3ccc(F)cc3)cc12  UniProt O75116            22
3  Nc1n[nH]c2ccc(C(=O)N3CC[C@H]3c3ccc(F)cc3)cc12  UniProt O75116            12
4  Nc1n[nH]c2ccc(C(=O)N3CC[C@@H](c4ccc(Cl)cc4)C3)cc12  UniProt O75116            20

Qu. Supply inhibition value. Item: "Nc1n[nH]c2ccc(C(=O)N3CCC[C@H]3c3ccc(F)cc3)cc12"
Ans. 27

Qu. Item "CNc1n[nH]c2ccc(C(=O)N3CCC[C@H]3c3ccc(Cl)cc3)cc12" : provide inhibition
Ans. 17

---

- assay text: Intrinsic clearance in rat liver microsomes at 1 uM preincubated for 5 mins followed by NADPH addition measured after 5 to 30 mins by LC-MS/MS analysis
- Type: ADME
- study conditions: read-out: CLH
Entries annotated with measured microsomal CLint at 1 µM

Qu. State, in one line, measured microsomal CLint at 1 µM of CCOc1ccccc1C(C)NC(=O)c1nn2c(C)ncc2s1 (stereo not drawn)
Ans. 38 µL/min/mg

Qu. Respond only with microsomal CLint at 1 µM recorded for "Nc1n[nH]c2ccc(C(=O)N3CC[C@@H](c4ccc(Cl)cc4)C3)cc12"
Ans. 26 µL/min/mg

Qu. Please give the documented microsomal CLint at 1 µM of "Nc1n[nH]c2ccc(C(=O)N3CCC[C@H]3c3ccc(F)cc3)cc12"
Ans. < 10 µL/min/mg

Qu. Output microsomal CLint at 1 µM of "Cc1nnc2ccc(C(=O)N3CCC[C@H]3c3ccc(Cl)cc3)cn12"
Ans. 19 µL/min/mg

Qu. // fetch microsomal CLint at 1 µM given entry "Cc1n[nH]c2ccc(C(=O)N3CCC[C@H]3c3ccc(Cl)cc3)cc12"
Ans. 79 µL/min/mg

Qu. Name the recorded microsomal CLint at 1 µM of the molecule listed here: "CCOc1ccccc1CNC(=O)c1nn2c(C)ncc2s1"
Ans. 435 µL/min/mg

Qu. Check the records and state microsomal CLint at 1 µM for "Cc1n[nH]c2ccc(C(=O)N3CCC[C@H]3c3ccc(Cl)cc3)nc12"
Ans. 69 µL/min/mg

Qu. Identify the reported microsomal CLint at 1 µM for the following entry. Cc1n[nH]c2ccc(C(=O)N3CCN(C)CC3c3ccc(Cl)cc3)cc12 (stereo not drawn)
Ans. 40 µL/min/mg

Qu. Check the records and state microsomal CLint at 1 µM for "O=C(c1ccc2[nH]ncc2c1)N1CCC[C@H]1c1ccc(Cl)cc1"
Ans. 94 µL/min/mg

Qu. Answer with reported microsomal CLint at 1 µM of "Nc1n[nH]c2ccc(C(=O)N3CC[C@H]3c3ccc(F)cc3)cc12"
Ans. < 10 µL/min/mg
